B1: H2-Kb / Ed21 (parent complex)
chain 1: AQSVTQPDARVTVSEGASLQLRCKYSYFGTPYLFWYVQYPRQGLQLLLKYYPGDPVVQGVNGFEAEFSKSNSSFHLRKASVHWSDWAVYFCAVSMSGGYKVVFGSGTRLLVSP
chain 2: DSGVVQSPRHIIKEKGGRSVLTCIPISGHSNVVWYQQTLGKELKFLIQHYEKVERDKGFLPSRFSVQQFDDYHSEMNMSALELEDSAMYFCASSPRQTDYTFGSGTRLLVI
chain 3: not shown
chain 4: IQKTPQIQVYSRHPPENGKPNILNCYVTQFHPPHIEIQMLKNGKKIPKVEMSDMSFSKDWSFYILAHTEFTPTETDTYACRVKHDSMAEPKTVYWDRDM
chain 5: SIINFEKL

- Variants of: B1
- ASSAY TEXT: % of reporter cells activated (NFAT-GFP), raw; also: test concentration or dose not given here
Classes are defined on ratio to parent with ranges class 1: < 0.7; class 2: ≥ 0.7 and < 0.9; class 3: ≥ 0.9

INSERT INTO results (mutant, assigned_label) VALUES
  ('chain 5 N4I', 'class 1'),
  ('chain 5 K7Y', 'class 2'),
  ('chain 5 N4Y', 'class 1'),
  ('chain 5 N4L', 'class 1'),
  ('chain 5 N4E', 'class 1'),
  ('chain 5 L8F', 'class 2'),
  ('chain 5 S1G', 'class 3'),
  ('chain 5 F5L', 'class 3'),
  ('chain 5 K7L', 'class 2'),
  ('chain 5 E6R', 'class 3');
